- procedureDetails: Hoechst 33342 nuclear staining;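 further: apoptotic nuclei scored 0 none 1 weak under 50% of cells 2 strong over 50% of cells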
- Type: cell-based
- experimentalSetup: HeLa cells, conc 3
Please go through the items and note down their Hoechst 33342 nuclear staining score, HeLa.

Q. State the recorded Hoechst 33342 nuclear staining score, HeLa for this entry: COc1cc(-c2cc(-c3cncc(C(=O)NCCC4CCCN4C)c3)cn2S(=O)(=O)c2ccc(C)cc2)cc(OC)c1OC.Cl (stereo not shown) [Example 62]
A. 0

Q. Could you do the same for NC(=O)c1cncc(-c2cc(-c3ccc4c(c3)OCO4)n(S(=O)(=O)c3cccc(Cl)c3)c2)c1 [Example 75] , please?
A. 0

====

- procedureDetails: Hoechst 33342 nuclear staining;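 further: apoptotic nuclei scored 0 none 1 weak under 50% of cells 2 strong over 50% of cells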
- Assay type: cell-based
- experimentalSetup: Jily cells; conc 3 (final concentrations in μM); 24 h or 48 h incubation
Please go through the items and note down their Hoechst 33342 nuclear staining score, Jily.
Could you keep your reply to the number by itself?

Q. State the recorded Hoechst 33342 nuclear staining score, Jily for this entry: "Cc1ccc(S(=O)(=O)n2cc(-c3cncc(C(N)=O)c3)cc2-c2cccs2)cc1"
A. 0

Q. Could you do the same for "Cc1ccc(S(=O)(=O)n2cc(-c3ccc(C#N)cc3)cc2-c2cccs2)cc1" , please?
A. 0

====

- Test system: Jurkat
- procedureDetails: MTS proliferation assay
- Type: cell-based, human
- experimentalSetup: 72 h
pIC50: −log10 of the molar value.
observable: pIC50

Q. State the recorded pIC50 for this entry: COc1ccc(S(=O)(=O)n2cc(-c3cncc(C(N)=O)c3)cc2-c2cc(OC)ccc2OC)cc1 [Example 105]
A. > 6.00

Q. Could you do the same for CCCCOc1ccc(S(=O)(=O)n2cc(-c3cccnc3)cc2-c2cc(OC)c(OC)c(OC)c2)cc1 [Example 78] , please?
A. < 6.00

Q. Could you do the same for COc1cc(-c2cc(-c3cncc(C(N)=O)c3)cn2S(=O)(=O)c2ccc(C)cc2)cc(OC)c1OC [Example 56] , please?
A. > 6.70

Q. Could you do the same for CCN1CCN(c2ccc(NCc3cc(-c4ccc5c(c4)OCO5)n(S(=O)(=O)c4ccc(C)cc4)c3)cc2)CC1 [Example 37] , please?
A. < 6.00

Q. Could you do the same for COc1cc(-c2cc(-c3ccc(S(N)(=O)=O)cc3)cn2S(=O)(=O)c2ccc(C)cc2)cc(OC)c1OC [Example 57] , please?
A. > 6.70

Q. Could you do the same for CCN(CC)CCCNCc1cc(-c2ccc3c(c2)OCO3)n(S(=O)(=O)c2ccc(C)cc2)c1 [Example 34] , please?
A. < 6.00

Q. Could you do the same for COc1cc(-c2cc(-c3cccnc3)cn2S(=O)(=O)c2ccc(N)cc2)cc(OC)c1OC [Example 93] , please?
A. < 6.00

====

- Test system: Jurkat
- procedureDetails: MTS proliferation assay
- Type: cell-based, human
- experimentalSetup: 72 h
observable: IC50

Q. State the recorded IC50 for this entry: "Cc1ccc(S(=O)(=O)n2cc(CNCCCN3CCN(C)CC3)cc2-c2ccc3c(c2)OCO3)cc1"
A. > 1000 nM

Q. Could you do the same for "Cc1ccc(S(=O)(=O)n2cc(CN(C)C3CCN(C)CC3)cc2-c2ccc3c(c2)OCO3)cc1" , please?
A. > 1000 nM

Q. Could you do the same for "COc1cc(-c2cc(-c3cccnc3)cn2S(=O)(=O)c2ccc(C(C)(C)C)cc2)cc(OC)c1OC" , please?
A. > 1000 nM
